Cited source for all entries: PubChem BioAssay (NCATS)

Assay: Quantitative High-Throughput drug screen in 47 multiple myeloma cell lines against the NCATS MIPE library collection: OPM2_DSMZ cell viability assay (AID 1919872); further: nearly all actives have a fitted effect of over 30% in size
Conditions: OPM2 myeloma viability, CellTiter-Glo ATP luminescence, 48 h; series mostly up to 45.8 µM
From the text: PI: Beverly A. Mock Ph.D. Laboratory of Cancer Biology and Genetics, Center for Cancer Research, National Cancer Institute, National Institute of Health, Bethesda, Maryland […] 5; Detector; 425V; Luminescence; Viewlux PerkinElmer. […] 1. […] Briefly, the corresponding myeloma cell lines were screened in 1,536-well plates with 500 cells, 5-uL per well for inhibition of cell viability (assessed by measuring ATP levels with CellTiterGlo). […]
Inconclusive results are not listed. Active and inactive are the calls of the source. The call rests on the fitted dose curve; in most records, active means well fitted cell-killing curve with a large enough effect; inconclusive means small, poorly fitted or top-dose-only effect, or effect the other way; inactive means no such curve, though single readings can be large or run the other way.
Classes used: active, inactive

>>> assigned_class("CC(=O)OCC(=O)[C@@]1(O)[C@H](C)C[C@H]2[C@@H]3C=C(C)C4=Cc5c(cnn5-c5ccccc5)C[C@]4(C)[C@@H]3[C@@H](O)C[C@@]21C")
"active"
>>> assigned_class("OCCCNc1cc(-c2ccnc(Nc3cccc(Cl)c3)n2)ccn1")
"active"
>>> assigned_class("O=C(O)CCCc1c[nH]c2ccccc12")
"inactive"
>>> assigned_class("Clc1ccc2ncc(-c3cccc(NC4CNC4)n3)n2c1")
"active"
>>> assigned_class("C[C@@H]1COC(Nc2ccc3ncnc(Nc4ccc(OCc5nccs5)c(Cl)c4)c3c2)=N1")
"active"
>>> assigned_class("Nc1nc(-c2nn(Cc3ccccc3F)c3ncccc23)nc(N)c1N1CCOCC1")
"inactive"
>>> assigned_class("COc1cccc(Nc2c(C(N)=O)cnc3c(C)cc(S(=O)(=O)c4cccc(C(=O)N(C)C)c4)cc23)c1")
"inactive"

----------
assay: Quantitative High-Throughput drug screen in 47 multiple myeloma cell lines against the NCATS MIPE library collection: MMM1_PLB cell viability assay (AID 1918976); conditions: MMM1 myeloma cells viability, CellTiter-Glo, 48 h; series mostly up to 45.8 µM; further: potency means the concentration at half of the fitted maximal effect; nearly all actives have a fitted effect of over 35% in size
Inconclusive results are not listed. Active and inactive are the calls of the source. Calls follow the shape of the dose curve; as a rule, active = well fitted cell-killing curve with a large enough effect; inconclusive = small, poorly fitted or top-dose-only effect, or effect the other way; inactive = no such curve, though single readings can be large or run the other way.
recorded-endpoint: Potency

>>> result("COc1cc2c(Oc3ccc(NC(=O)C4(C(=O)Nc5ccc(F)cc5)CC4)cc3F)ccnc2cc1OCCCN1CCOCC1")
"18.7 µM (active)"
>>> result("CCOc1cc2ncc(C#N)c(Nc3ccc(F)c(Cl)c3)c2cc1NC(=O)C=CCN(C)C")
"18.7 µM (active)"
>>> result("CCCCOc1c(C(=O)c2c(F)cc(C)cc2F)cnc2n[nH]cc12")
"5.26 µM (active)"
